The measurements presented in this section are drawn from ChEMBL document CHEMBL4513216.

- System: Plasmodium berghei
- assay-name: Screen against P. berghei liver stage (PbLuc), transformed with Luciferase, at 10uM
- Format: functional, HepG2
- measurement-parameters: tested at 10 uM
In all, about 69,000 compounds went through this assay and about 8,600 (12%) showed an effect of 50% or more. What follows is part of a selection rich in strong results, with near analogues and random picks from the rest.
Entries and their INHIBITION
observation-type: INHIBITION (%)

{"molecule": "CSc1cccc(CN2CCC(CCC(=O)Nc3ccccc3)CC2)c1", "observation-type": "INHIBITION", "unit-text": "%", "numeric-readout": 47.7}
{"molecule": "CCSc1nnc(CCNC(=O)OC(C)(C)C)o1", "observation-type": "INHIBITION", "unit-text": "%", "numeric-readout": -17.3}
{"molecule": "Cn1c(CCN2CCN(CCc3ccccc3)CC2)nc2ccccc21", "observation-type": "INHIBITION", "unit-text": "%", "numeric-readout": 49.9}
{"molecule": "Cn1cnc(S(=O)(=O)N2C[C@H]3CN(Cc4cccnc4)C[C@H]3C2)c1", "observation-type": "INHIBITION", "unit-text": "%", "numeric-readout": 49.1}
{"molecule": "CSC1(CNC(=O)NCc2sccc2C)CCOCC1", "observation-type": "INHIBITION", "unit-text": "%", "numeric-readout": 30.4}
{"molecule": "O=C1CC(c2ccc(O)cc2)c2c(c(C(=O)O)cn2-c2ccccc2)N1 (stereo not drawn)", "observation-type": "INHIBITION", "unit-text": "%", "numeric-readout": 25.2}
{"molecule": "Cn1cnc(S(=O)(=O)N2C[C@H]3CC[C@@H](C2)N(Cc2ccccn2)C3)c1", "observation-type": "INHIBITION", "unit-text": "%", "numeric-readout": 20.9}
{"molecule": "O=C(NCc1cccc(F)c1)Nc1ccn(CCN2CCOCC2)n1", "observation-type": "INHIBITION", "unit-text": "%", "numeric-readout": 40.5}
{"molecule": "Cc1[nH]c2cc(C3CCN(C(=O)c4ccccn4)CC3)nn2c(=O)c1C", "observation-type": "INHIBITION", "unit-text": "%", "numeric-readout": 29.55}
{"molecule": "Cc1nc([C@@H]2C[C@@H]3CCN(C(=O)c4ccsc4)C[C@H]3O2)no1", "observation-type": "INHIBITION", "unit-text": "%", "numeric-readout": 18.5}
{"molecule": "O=C(NC[C@H]1OC[C@@H](NC2CCC2)[C@@H]1O)c1cccs1", "observation-type": "INHIBITION", "unit-text": "%", "numeric-readout": 18.4}
{"molecule": "COc1cc(N2C[C@H]3CN(Cc4ccccn4)C[C@H]3C2)ncn1", "observation-type": "INHIBITION", "unit-text": "%", "numeric-readout": 85.6}
{"molecule": "Cc1ccc(OCC(C)NS(=O)(=O)Cc2ccon2)cc1 (stereo not drawn)", "observation-type": "INHIBITION", "unit-text": "%", "numeric-readout": 48.5}
{"molecule": "Fc1cccc(CN2C[C@@H]3CN(Cc4ccccn4)C[C@@H]3C2)c1", "observation-type": "INHIBITION", "unit-text": "%", "numeric-readout": 18.6}
{"molecule": "CN1CCC(N[C@@H]2CO[C@H](CNC(=O)c3cccs3)[C@H]2O)CC1", "observation-type": "INHIBITION", "unit-text": "%", "numeric-readout": 17.4}
{"molecule": "C=C(C)CSc1nnc(CCNC(=O)OC(C)(C)C)o1", "observation-type": "INHIBITION", "unit-text": "%", "numeric-readout": -0.532}
{"molecule": "CSc1cccc(CN2CCC(CCC(=O)NC3CC3)CC2)c1", "observation-type": "INHIBITION", "unit-text": "%", "numeric-readout": 35.4}
{"molecule": "O=C(CCCN1CCCCC1)NC(C(=O)O)c1cccc(F)c1 (stereo not drawn)", "observation-type": "INHIBITION", "unit-text": "%", "numeric-readout": -20}
